# Test system: WPMY1-GM130-SQSTM1
# Experiment Summary: phenotypically active (imaging signature differs from DMSO and reproducible) at any of 0.3-9 uM (binary (1 = active, 0 = inactive)); higher = active
# Measurement Conditions: treatment time: 24 h
Outcome Measure: phenotypically active

Completed entries (count: 8):
Compound: CC1(C)[C@@H](O)CC[C@]2(C)[C@H]3C(=O)C=C4[C@@H]5C[C@@](C)(C(=O)O)CC[C@]5(C)CC[C@@]4(C)[C@]3(C)CC[C@@H]12 [Glycyrrhetinic Acid]
phenotypically active: 0 (inactive)
//
Compound: COc1cc2c(Nc3ccc(Br)cc3F)ncnc2cc1OCC1CCN(C)CC1 [vandetanib]
phenotypically active: 1 (active)
//
Compound: c1ccc(-c2n[nH]cc2-c2ccnc3ccccc23)nc1
phenotypically active: 0 (inactive)
//
Compound: Cn1cnc(N)c2ncnc1-2 [3-Methyladenine]
phenotypically active: 0 (inactive)
//
Compound: C[N+](C)(C)CCCCCC[N+](C)(C)C [Hexamethonium bromide]
phenotypically active: 0 (inactive)
//
Compound: C/C(=C/C(=O)Nc1ccccc1C(=O)O)c1ccc2ccccc2c1
phenotypically active: 0 (inactive)
//
Compound: COc1cc(OC)c2c(=O)[nH]c(-c3cc(C)c(OCCO)c(C)c3)nc2c1 [apabetalone]
phenotypically active: 0 (inactive)
//
Compound: O=S(=O)(NCCSSCCNS(=O)(=O)c1cc(Cl)ccc1Cl)c1cc(Cl)ccc1Cl
phenotypically active: 0 (inactive)

Now consider a different compound.
Task: Can you share its phenotypically active? I mean this compound: O=C(O/N=C1\c2ccccc2-c2nc3ccccc3nc21)c1ccco1
Result: 0 (inactive)

----------
# Test system: A549-GM130-SQSTM1
# Experiment Summary: phenotypically active (imaging signature differs from DMSO and reproducible) at any of 0.3-9 uM (binary (1 = active, 0 = inactive)); higher = active
# Measurement Conditions: treatment time: 24 h
Structures can show the parent of a compound that is named as a salt.
Use one of these outcomes when replying: active, inactive

Below, 2 compounds whose answers are already recorded.
Compound: O=C1N(c2ccccc2)c2ccccc2C1(Cc1ccncc1)Cc1ccncc1
Assigned Category: inactive
//
Compound: CNCC[C@H](Oc1cccc2ccccc12)c1cccs1
Assigned Category: inactive

Task: How was Cc1cc(C(=O)NNCc2ccccc2)no1 classified in this test?
Result: inactive

Task: How was COc1ccccc1OCC(O)COC(N)=O (stereo unspecified) classified in this test?
Result: inactive

Task: How was CC#CC(=O)N1CCC[C@H]1c1nc(-c2ccc(C(=O)Nc3ccccn3)cc2)c2c(N)nccn12 classified in this test?
Result: active

Task: How was CCOc1nc(NC(=O)Cc2cc(OC)ccc2OC)cc(N)c1C#N classified in this test?
Result: inactive

Task: How was CC(C)NCC(O)COc1ccc(CC(N)=O)cc1 (stereo unspecified) classified in this test?
Result: active

Task: How was O=C(/C=C/N1C[C@H]2C[C@@H]1CN2c1ccccn1)c1ccccc1O classified in this test?
Result: inactive

Task: How was C[C@H](CCC(=O)NCC(=O)O)[C@H]1CC[C@H]2[C@@H]3[C@H](O)C[C@@H]4C[C@H](O)CC[C@]4(C)[C@H]3C[C@H](O)[C@]12C classified in this test?
Result: inactive

Task: How was CC(=O)Nc1ccc(C(=O)Nc2ccccc2N)cc1 classified in this test?
Result: active

Task: How was O=C(Nc1cccc(Cl)c1)Nc1ncc(CCNc2ncnc3ccsc23)s1 [SNS 314 mesylate] classified in this test?
Result: active

Task: How was CN(C)CCC[C@@]1(c2ccc(F)cc2)OCc2cc(C#N)ccc21 classified in this test?
Result: inactive

Task: How was O=C1CCc2c(ccc3ccccc23)O1 classified in this test?
Result: inactive

Task: How was CC(C)N(CCCNC(=O)Nc1ccc(C(C)(C)C)cc1)C[C@H]1O[C@@H](n2ccc3c(N)ncnc32)[C@H](O)[C@@H]1O classified in this test?
Result: inactive

Task: How was COc1ccc(OC)c(C(O)CNC(=O)CN)c1 (stereo unspecified) classified in this test?
Result: inactive

Task: How was O=C(/C=C/c1ccc(O)c(O)c1)O[C@@H]1C[C@](O)(C(=O)O)C[C@@H](O)[C@H]1O classified in this test?
Result: inactive

Task: How was C[C@H](NC(=O)[C@@H](O)c1cc(F)cc(F)c1)C(=O)N[C@@H]1C(=O)N(C)c2ccccc2-c2ccccc21 classified in this test?
Result: inactive

Task: How was O=S(c1ccccc1)c1ccc2nnnn2n1 (stereo unspecified) classified in this test?
Result: inactive

Task: How was CCCN[C@H]1CCc2nc(N)sc2C1 [pramipexole] classified in this test?
Result: inactive

Task: How was CC[C@H]1OC(=O)[C@H](C)[C@@H](O[C@H]2C[C@@](C)(OC)[C@@H](O)[C@H](C)O2)[C@H](C)[C@@H](O[C@@H]2O[C@H](C)C[C@H](N(C)C)[C@H]2O)[C@](C)(O)C[C@@H](C)C(=O)[C@H](C)[C@@H](O)[C@]1(C)O classified in this test?
Result: inactive

Task: How was CN(C)CC(O)Cn1c2ccc(Br)cc2c2cc(Br)ccc21 (stereo unspecified) classified in this test?
Result: active

----------
# Test system: WPMY1-TP53BP1-CLTA
# Experiment Summary: phenotypically active (imaging signature differs from DMSO and reproducible) at any of 0.3-9 uM (binary (1 = active, 0 = inactive)); higher = active
# Measurement Conditions: treatment time: 24 h
Outcome Measure: phenotypically active
// response body must contain only the number

Task: I'm curious: which phenotypically active was measured for CCC(=O)OCC(=O)[C@@]1(OC(=O)CC)[C@@H](C)C[C@H]2[C@@H]3CCC4=CC(=O)C=C[C@]4(C)[C@@]3(Cl)[C@@H](O)C[C@@]21C [beclomethasone-dipropionate] tested on WPMY1-TP53BP1-CLTA?
Result: 0

Task: I'm curious: which phenotypically active was measured for C=C1C[C@@]23CCC4[C@@](C)(CCC[C@@]4(C)C(=O)O[C@@H]4O[C@H](CO)C(O)[C@H](O)C4O)C2CC[C@@]1(O[C@H]1O[C@H](CO)C(O)[C@H](O)[C@H]1O[C@@H]1O[C@H](CO)[C@@H](O)[C@H](O)[C@H]1O)C3 (stereo partly drawn) [Stevioside] tested on WPMY1-TP53BP1-CLTA?
Result: 0

Task: I'm curious: which phenotypically active was measured for Cc1nc(NC(=O)N2CCC[C@H]2C(N)=O)sc1-c1csc(C(C)(C)C)n1 tested on WPMY1-TP53BP1-CLTA?
Result: 1

Task: I'm curious: which phenotypically active was measured for Cc1c(-c2cnccn2)ssc1=S tested on WPMY1-TP53BP1-CLTA?
Result: 0

Task: I'm curious: which phenotypically active was measured for c1ccc(CC2=NCCN2)cc1 tested on WPMY1-TP53BP1-CLTA?
Result: 0

----------
# Tested on: WPMY1-GM130-SQSTM1
# Experiment Summary: phenotypically active (imaging signature differs from DMSO and reproducible) at any of 0.3-9 uM (binary (1 = active, 0 = inactive)); higher = active
# Measurement Conditions: treatment time: 24 h
The compounds listed here are annotated with their phenotypically active.
// response body must contain only the number

Task: Can you share its phenotypically active? I mean this compound: Nc1ncnc2c1ncn2[C@H]1O[C@@H](C(=O)N2CCN(CC(=O)Nc3cccc4c3CNC4=O)CC2)[C@H](O)[C@@H]1O
Result: 0

----------
# Tested on: WPMY1-ACTB-RAB5A
# Experiment Summary: phenotypically active (imaging signature differs from DMSO and reproducible) at any of 0.3-9 uM (binary (1 = active, 0 = inactive)); higher = active
# Measurement Conditions: treatment time: 24 h
Use one of these outcomes when replying: true for active, false for inactive

Molecule: CCN1C(=O)NC(c2ccccc2)C1=O (centres undefined) [ethotoin]
Assigned Category: true

Task: How was CN(C)CCCC1(c2ccc(F)cc2)OCc2cc(C#N)ccc21 (centres undefined) [citalopram] classified in this test?
Result: false

Task: How was Clc1ccc2nsnc2c1NC1=NCCN1 [tizanidine] classified in this test?
Result: false

----------
The molecules listed here are annotated with their phenotypically active.
# Tested on: WPMY1-TUBA1B-RELA
# Experiment Summary: phenotypically active (imaging signature differs from DMSO and reproducible) at any of 0.3-9 uM (binary (1 = active, 0 = inactive)); higher = active
# Measurement Conditions: treatment time: 24 h

Molecule: C=C1C(=O)O[C@@H]2C=C(C)CCC=C(C)CC[C@@H]12 [Costunolide]
phenotypically active: 1 (active)

Task: Can you share its phenotypically active? I mean this molecule: S=c1[nH]cnc2nc[nH]c12 [mercaptopurine]
Result: 1 (active)

Task: Can you share its phenotypically active? I mean this molecule: Cc1ccc(O)c([C@H](CCN(C(C)C)C(C)C)c2ccccc2)c1 [Tolterodine L-tartrate]
Result: 0 (inactive)
